# Tested On: T1, Rat serum albumin (rat, UniProt P02770 25-608)
# T1 construct: bought; immobilised on a CM5 chip by amine coupling; also called Rat SA
# Run Description: SPR, SA on chip, VHH 300 nM, 25 C
Reported Endpoint: koff (s⁻¹)

{"Binder": "VHH moiety 4 (MC6.1C80.43) (VHH) VHH: EVQLLESGGGLVQPGGSLRLSCAASGRYIDETAVAWFRQAPGKGREFVAGIGGGVDITYYADSVKGRFTISRDNSKNTLYLQMNSLRPEDTAVYYCAARPGRPLITSKVADLYPYWGQGTLVTVSS", "koff (s⁻¹)": 0.0033}
{"Binder": "VHH moiety 17 (MC6.1C22-R102K) (VHH) VHH: EVQLLESGGGLVQPGGSLRLSCAASGRYIDETAVAWFRQAPGKEREFVAGIGGGVDITYYADSVKGRFTISRDNSKNTLYLQMNSLRPEDTAVYYCAARPGKPLITSKVADLYPYWGQGTLVTVSS", "koff (s⁻¹)": 0.0081}
{"Binder": "VHH moiety 21 (MC6.1C22-P103Q) (VHH) VHH: EVQLLESGGGLVQPGGSLRLSCAASGRYIDETAVAWFRQAPGKEREFVAGIGGGVDITYYADSVKGRFTISRDNSKNTLYLQMNSLRPEDTAVYYCAARPGRQLITSKVADLYPYWGQGTLVTVSS", "koff (s⁻¹)": 0.011}

[1] VHH moiety 18 (MC6.1C22-R102Q) (VHH) VHH: EVQLLESGGGLVQPGGSLRLSCAASGRYIDETAVAWFRQAPGKEREFVAGIGGGVDITYYADSVKGRFTISRDNSKNTLYLQMNSLRPEDTAVYYCAARPGQPLITSKVADLYPYWGQGTLVTVSS
[2] VHH moiety 39 (MC6.1C90.43) (VHH) VHH: EVQLLESGGGLVQPGGSLRLSCAASGRYIDETAVAWFRQAPGKGREFVAGIGGGVDITYYADSVKGRFTISRDNSKNTLYLQMNSLRPEDTAVYYCGARPGRPLITSKVADLYPYWGQGTLVTVSS
Exercise: Could you determine which record has the numerically smaller koff? Candidates: 1 and 2 When you have decided, please share the label of that item.
Key: 2
(2: 0.0038 s⁻¹, 1: 0.014 s⁻¹)
